The following compounds are listed with their measured T/C values.
Test system: L1210 leukemia ip in BDF1 mice, survival T/C
Experiment: NCI In Vivo Anticancer Drug Screen. Data for tumor model L1210 Leukemia (intraperitoneal) in B6D2F1 (BDF1) mice
Details: endpoint: mean survival time; dose: 150.0 mg/kg/injection; schedule: Q01DX001 (ip); vehicle: saline; higher = longer survival
Toxic doses and inconclusive results are not listed.

Please review the entries below; each comes with its answer.
[[record]]
compound = "CC(C)/C=C/C1(C(C)C)C(=O)NC(=S)NC1=O"
measurement_label = "T/C"
obs_value = "100 % of control"

[[record]]
compound = "Nc1ncnc2nc(SC3OC(CO)C(O)C3O)[nH]c12 (stereo not given)"
measurement_label = "T/C"
obs_value = "100 % of control"

[[record]]
compound = "c1ccc(CCCC2CCCC2)cc1"
measurement_label = "T/C"
obs_value = "96 % of control"

[[record]]
compound = "OC(c1ccccc1)(c1ccc(-c2ccccc2)cc1)c1cccc2ccccc12 (stereo not given)"
measurement_label = "T/C"
obs_value = "92 % of control"


Kindly consider the entry below.
compound Cc1c(Cl)cccc1N=C=S , T/C observed: 97 % of control

Sourced from PubChem BioAssay AID248
